Cited source for all entries: PubChem BioAssay (NCATS)

# Tested on: SC27B
# Assay comment: qHTS profiling for inhibitors of Plasmodium falciparum proliferation (AID 504749); note: nearly all actives have a fitted effect of over 60% in size
# Condition context: P. falciparum in erythrocytes, SYBR Green DNA, 72 h; series mostly up to 28.7 µM
Results filed as inconclusive are left out. The source made the active and inactive calls. Calls come from the whole dose curve; as a rule, active = well fitted inhibition curve with a large enough effect; inconclusive = small, poorly fitted or top-dose-only effect; inactive = flat fitted curve, though single readings scatter.
Entry note: the call must match one of yes (1) (active), no (0) (inactive)

Enquiry: Answer briefly: the call reported for CNCCc1ccccn1 in this assay.
Return: no (0)

Enquiry: What call does the record list for C[N+]1(C)CCC(=C(c2ccccc2)c2ccccc2)CC1 ?
Return: no (0)

Enquiry: I'd appreciate the recorded outcome for Cc1ncc(CO)c(C=O)c1O from this test.
Return: no (0)

Enquiry: Call for entry NC1CCN(c2nc3c(cc2F)c(=O)c(C(=O)O)cn3-c2ccc(F)cc2F)C1 (stereo not given) :
Return: no (0)

Enquiry: I would be grateful if you could indicate the recorded call for CCOC(=O)Nc1ccc2c(c1)N(C(=O)CCN1CCOCC1)c1ccccc1S2 .
Return: no (0)

Enquiry: Test call, this molecule: CN1CCN(c2cc3c(cc2F)c(=O)c(C(=O)O)cn3-c2ccc(F)cc2)CC1
Return: no (0)

Enquiry: What did this assay record as the result for CCCCCCCCCCCCSCCOCCO ?
Return: no (0)

Enquiry: Recorded test call requested for C[C@@H](O)[C@H]1C(=O)N2C(C(=O)O)=C(S[C@@H]3CN[C@H](CNS(N)(=O)=O)C3)[C@H](C)[C@H]12
Return: no (0)

Enquiry: Answer briefly: the call reported for CC(=O)NO in this assay.
Return: no (0)

Enquiry: How was CN(C)CCC[C@@]1(c2ccc(F)cc2)OCc2cc(C#N)ccc21 classified in this test?
Return: no (0)

Enquiry: Test call for this molecule, please: Clc1cccc(C(c2ccc3nc[nH]c3c2)n2ccnc2)c1 (stereo not given)
Return: yes (1)

Enquiry: What call does the record list for Cc1ccccc1OCC(O)CO (stereo not given) ?
Return: no (0)

Enquiry: Fill in: this test's call for CCCCCCCCCCCCCC[N+](C)(C)Cc1ccccc1 is ___
Return: yes (1)

Enquiry: Dear colleague, could you share the recorded outcome for CCOc1ccc(NC(C)=O)cc1 when you have a moment?
Return: no (0)

Enquiry: Field: outcome | Entry: COc1ccc(-c2cc(C(F)F)nn2-c2ccc(S(N)(=O)=O)cc2)cc1F
Return: no (0)

Enquiry: What outcome does the record of this test show for CC(=O)N[C@@H](CCC(=O)O)C(=O)O ?
Return: no (0)

Enquiry: // param item: CCCCNc1ccc(C(=O)OCCOCCOCCOCCOCCOCCOCCOCCOCCOC)cc1 ; yields the recorded call
Return: no (0)

Enquiry: What call does the record list for CC(C)CCCC(C)N (stereo not given) ?
Return: no (0)

Enquiry: // param item: CCCCNC(=O)NS(=O)(=O)c1ccc(N)cc1 ; yields the recorded call
Return: no (0)

Enquiry: What did the test return for CC(=O)Nc1ccc(S(=O)(=O)Nc2ccc([N+](=O)[O-])cc2)cc1 ?
Return: no (0)

Enquiry: Short answer needed: outcome of this test for CCNC(=O)/C=C/c1cccc(Br)c1 ?
Return: no (0)

Enquiry: // return assay outcome for CCc1oc2ccccc2c1C(=O)c1cc(Br)c(O)c(Br)c1
Return: no (0)

Enquiry: For CN(CCCN1c2ccccc2CCc2ccccc21)CC(=O)c1ccc(Cl)cc1 , what call appears in the results of this test?
Return: yes (1)

Enquiry: Which outcome was entered for the molecule CC(C)(C)CC(C)(C)c1ccc(O)c(-n2nc3ccccc3n2)c1 in this test?
Return: yes (1)

Enquiry: Please state the recorded outcome for this molecule: CCN(CC)CCNc1ccc(CO)c2sc3ccccc3c(=O)c12
Return: yes (1)

###

# Test system: CP192
# Assay comment: qHTS profiling for inhibitors of Plasmodium falciparum proliferation (AID 504749); note: nearly all actives have a fitted effect of over 60% in size
# Condition context: P. falciparum in erythrocytes, SYBR Green DNA, 72 h; series mostly up to 28.7 µM
Inconclusive results are not listed. Activity calls are given as the source filed them. The call rests on the fitted dose curve; in most records, active means well fitted inhibition curve with a large enough effect; inconclusive means small, poorly fitted or top-dose-only effect; inactive means flat fitted curve, though single readings scatter.
Field 'call' accepts active, inactive

Enquiry: Which result was noted for this molecule in the test: CN1CCN(C2=Nc3ccccc3Sc3ccc(Cl)cc32)CC1
Return: inactive

Enquiry: Could you kindly confirm the outcome this assay logged for CCc1oc2ccccc2c1C(=O)c1cc(I)c(O)c(I)c1 ?
Return: inactive

Enquiry: Hey, what did the test say about COc1ccc(C(=O)c2ccccc2)c(O)c1 ?
Return: inactive

Enquiry: Would you mind telling me which call this test gave NS(=O)(=O)Cc1noc2ccccc12 ?
Return: inactive

Enquiry: Write down the call the test reported for this molecule. Item: CCCCCCCCCCCCCC(=O)OC(C)C
Return: inactive

Enquiry: I would be grateful if you could indicate the recorded call for O[C@@H](c1cc(C(F)(F)F)nc2c(C(F)(F)F)cccc12)[C@H]1CCCCN1 .
Return: active

###

# Tested on: DIV30
# Assay comment: qHTS profiling for inhibitors of Plasmodium falciparum proliferation (AID 504749); note: nearly all actives have a fitted effect of over 60% in size
# Condition context: P. falciparum in erythrocytes, SYBR Green DNA, 72 h; series mostly up to 28.7 µM
Records with an inconclusive call do not appear. Calls of active or inactive are those of the source. The call rests on the fitted dose curve; in most records, active means well fitted inhibition curve with a large enough effect; inconclusive means small, poorly fitted or top-dose-only effect; inactive means flat fitted curve, though single readings scatter.
Your response should consist of one outcome taken from active, inactive

Enquiry: Dear colleague, could you share the recorded outcome for c1ccc(CC2=NCCN2)cc1 when you have a moment?
Return: inactive

Enquiry: Could you please tell me the result logged for CCCCN=C(N)N=C(N)N in this assay?
Return: inactive

Enquiry: Which outcome was assigned to CCCc1ncc(C[n+]2ccccc2C)c(N)n1 in this test?
Return: inactive

Enquiry: Just curious, what result did CC[C@H](c1ccc(O)cc1)[C@@H](CC)c1ccc(O)cc1 get here?
Return: inactive

Enquiry: # fetch the recorded call for CC(=O)NO here
Return: inactive

Enquiry: What outcome does the record of this test show for O=C(O)Cc1csc(-c2ccc(Cl)cc2)n1 ?
Return: inactive

Enquiry: Name the outcome recorded for Cc1ccc(O)c([C@H](CCN(C(C)C)C(C)C)c2ccccc2)c1 in the assay.
Return: active

Enquiry: Just curious, what result did CCCCCCCCCCCCCCCCO get here?
Return: inactive

Enquiry: // param item: NC(=O)n1c(O)c(C(=O)c2cccs2)c2cc(Cl)ccc21 ; yields the recorded call
Return: inactive

Enquiry: Field: outcome | Entry: CN1CCN(C2=Nc3cc(F)ccc3Cc3ccccc32)CC1
Return: inactive

Enquiry: What is the recorded call for this compound in the test? CCCCCCCCNC(C)C(O)c1ccc(SC(C)C)cc1 (stereo unspecified)
Return: active

Enquiry: For c1ccc(-c2nc[nH]c2-c2ccccc2)cc1 , what call appears in the results of this test?
Return: inactive

Enquiry: What classification did O=C(Oc1cccc2cccnc12)c1ccccc1 end up with in this test?
Return: inactive

Enquiry: Hello, I am checking results. What call was entered for CC(=O)O[C@H]1C[C@@H]2CC[C@@H]3[C@H](CC[C@@]4(C)[C@H]3C[C@H]([N+]3(C)CCCCC3)[C@@H]4OC(C)=O)[C@@]2(C)C[C@@H]1N1CCCCC1 ?
Return: inactive

Enquiry: Call for entry COc1ccc(C(Cl)=C(c2ccc(OC)cc2)c2ccc(OC)cc2)cc1 :
Return: inactive

Enquiry: Would you mind telling me which call this test gave CC[N+](C)(CC)CCOC(=O)C(O)(c1ccccc1)C1CCCCC1 (stereo unspecified) ?
Return: inactive

Enquiry: Recorded test call requested for O=C1C(CCS(=O)c2ccccc2)C(=O)N(c2ccccc2)N1c1ccccc1 (stereo unspecified)
Return: inactive

Enquiry: Hey, what did the test say about OC1C(O)C(O)C(O)C(O)C1O (stereo unspecified) ?
Return: inactive

Enquiry: Please indicate how the test categorized NC1CCN(c2nc3c(cc2F)c(=O)c(C(=O)O)cn3-c2ccc(F)cc2F)C1 (stereo unspecified) .
Return: inactive

Enquiry: Give the logged outcome of this assay for the following compound: NCCNC(=O)c1ccc(Cl)cn1
Return: inactive

Enquiry: # fetch the recorded call for COc1ccccc1N1CCN(CCCCNC(=O)c2ccc(-c3ccc(C(C)=O)cc3)cc2)CC1 here
Return: inactive

Enquiry: Per the assay record, what outcome was assigned to CC(=O)Nc1ccc(CC(=O)O)cc1 ?
Return: inactive

Enquiry: Outcome? CCN(CC)CCOC(=O)C1(c2ccccc2)CCCC1
Return: inactive

Enquiry: What did the test return for CCNC(=O)/C=C/c1cccc(Br)c1 ?
Return: inactive

Enquiry: Assay result, entry O=C1C(=O)c2ccccc2C(O)=C1C1CCC(c2ccc(Cl)cc2)CC1 (stereo unspecified) — outcome?
Return: active

Enquiry: In this assay, the call recorded for CC(C)CCCC(C)N (stereo unspecified) was what?
Return: inactive

###

# Tested on: NIH3T3
# Assay comment: Cytotoxic Profiling of Annotated Libraries Using Quantitative High-Throughput Screening (AID 1296008); note: nearly all actives have a fitted effect of over 60% in size; note: potency is the fitted concentration of half-maximal effect
# Condition context: Five cell lines viability, CellTiter-Glo ATP luminescence, 48-72 h
# Experimental: Cell-based phenotypic screening is a commonly used approach to discover biological pathways, novel drug targets, chemical probes and high-quality hit-to-lead molecules. […] A pintool (Kalypsys) was used to transfer 23 nL of compound solution to the 1536-well assay plates. […] Plates were left at room temperature for 10 min before imaging the ATP-coupled luminescence using a ViewLux microplate imager (PerkinElmer, Waltham, MA).
Inconclusive results are not listed. Calls of active or inactive are those of the source. Calls come from the whole dose curve; as a rule, active = well fitted inhibition curve with a large enough effect; inconclusive = small, poorly fitted or top-dose-only effect; inactive = flat fitted curve, though single readings scatter.
Test readout: Potency

CC(C)CCCC(C)N (centres undefined): inactive
CC(C)n1c(/C=C/[C@@H](O)C[C@@H](O)CC(=O)O)c(-c2ccc(F)cc2)c2ccccc21: 11.9 µM (active)
COc1cc(C)nc(-n2nc(C)cc2OC)n1: inactive
NC1CCN(c2nc3c(cc2F)c(=O)c(C(=O)O)cn3-c2ccc(F)cc2F)C1 (centres undefined): inactive
